- Test system: Pseudomonas aeruginosa
- EXPERIMENT_SUMMARY: Antimicrobial activity against Pseudomonas aeruginosa 1405-con D2 by Etest
- Assay type: functional
RESULT_TYPE: MIC (µg/mL)
Numbers only, in µg/mL.

Example entries and their recorded answers appear below.
# COMPOUND, RESULT_NUMBER
records = [
    ("C[C@@H](O)[C@H]1C(=O)N2C(C(=O)O)=C(SCCNC=N)C[C@H]12 [IMIPENEM ANHYDROUS]", 16),
    ("CC1(C)S[C@@H]2[C@H](NC(=O)C(C(=O)O)c3ccccc3)C(=O)N2[C@H]1C(=O)O (some centres not stated)", 512),
    ("NC[C@H]1O[C@H](O[C@H]2[C@H](O)[C@@H](O[C@H]3O[C@H](CO)[C@@H](O)[C@H](N)[C@H]3O)[C@H](N)C[C@@H]2N)[C@H](N)C[C@@H]1O", 2),
]

Record MIC for all entries; do not skip any.
1. NCC[C@H](O)C(=O)N[C@@H]1C[C@H](N)[C@@H](O[C@H]2O[C@H](CN)[C@@H](O)[C@H](O)[C@H]2O)[C@H](O)[C@H]1O[C@H]1O[C@H](CO)[C@@H](O)[C@H](N)[C@H]1O
2. C[C@@H](O)[C@H]1C(=O)N2C(C(=O)O)=C(S[C@@H]3CN[C@H](C(=O)N(C)C)C3)[C@H](C)[C@H]12
3. CC(C)(O/N=C(\C(=O)N[C@@H]1C(=O)N2C(C(=O)[O-])=C(C[n+]3ccccc3)CS[C@H]12)c1csc(N)n1)C(=O)O

Resp:
[4, 8, 64]

Values were extracted from ChEMBL document CHEMBL1255447.
